Tested on: SNB-75 CNS
ASSAY REMARKS: NCI-60 one-dose screen, 48 h (100 = growth as untreated, 0 = no growth, -100 = all killed)
SETUP CONDITIONS: 10 µM unless noted
About 83,000 compounds went through this panel and 20% of them were active in at least one assay; those are over-represented in the sample as a whole.
Outcome: label 1 for growth of at least 30%; label 0 for anything lower.

Assess whether reported growth for `Nc1ncn([C@@H]2O[C@H](CO)[C@@H](O)C2(F)F)c(=O)n1` sits at 30% or higher.
label 1

Assess whether reported growth for CCC(C)C1NC(=O)C(CCCCN)NC(=O)C(CCCCN)NC(=O)C(CC(C)C)NC(=O)C(CCCCN)NC(=O)C(C(C)CC)NC(=O)C(C(C)C)NC(=O)C(C(C)CC)NC(=O)C(CCCCN)NC(=O)C(CCCCN)NC(=O)C(C)NC(=O)C(CCCCN)NC(=O)C(CC(C)C)NC1=O (centres undefined) sits at 30% or higher.
label 1

Assess whether reported growth for `O=C(N/N=C/c1coc2ccccc2c1=O)c1cc2oc(-c3ccccc3)cc2[nH]1` sits at 30% or higher.
label 1

Assess whether reported growth for COC(=O)C(N)CC(C)C (centres undefined) sits at 30% or higher.
label 1

Assess whether reported growth for `COc1cc(-c2nn(-c3ccc(NC(=O)c4cc(Cl)cc(Cl)c4)cc3)cc2-c2ccncc2)ccc1Cl` sits at 30% or higher.
label 1

Assess whether reported growth for `O=C(C(=O)N1CCOCC1)c1ccc(O[C@H]2O[C@H](CO)[C@@H](O)[C@H](O)[C@@H]2O)cc1` sits at 30% or higher.
label 1

Assess whether reported growth for `COC(=O)c1ccc2[nH]c(O)c(C(=Nc3ccc(N(C)C(=O)CN4CCN(C)CC4)cc3)c3ccc(N)cc3)c2c1` sits at 30% or higher.
label 1

Assess whether reported growth for `COc1cc2ncnc(-n3ncc4cc(NC(=O)Nc5ccccc5)ccc43)c2cc1OC` sits at 30% or higher.
label 0

Assess whether reported growth for COc1cccc(CNC(=O)c2cccc(C3CC(=O)c4c(cc(OC)c(OC)c4OC)O3)c2)c1 (centres undefined) sits at 30% or higher.
label 0

Assess whether reported growth for `Cn1cnc2nc[nH]c2c1=S` sits at 30% or higher.
label 1

Assess whether reported growth for `CCCCCCCCCCCCCCCCCCOP(=O)(O)O` sits at 30% or higher.
label 1

Assess whether reported growth for COC(c1ccccc1)C(Br)C(=O)c1ccccc1 (centres undefined) sits at 30% or higher.
label 1

Assess whether reported growth for `O=c1[nH]c(=S)[nH]c(O)c1/C=C1\C=Nc2ccccc21` sits at 30% or higher.
label 1

Assess whether reported growth for NC(CSC(c1ccccc1)(c1ccccc1)c1ccccc1)C(=O)NCC(=O)O (centres undefined) sits at 30% or higher.
label 1

Assess whether reported growth for `CN1CCN(Cc2ccc(NC(=O)c3cncc(C#Cc4c(N)ncc5ccc(F)cc45)c3)cc2C(F)(F)F)CC1` sits at 30% or higher.
label 0

Assess whether reported growth for `Cc1nc2c(nnn2-c2ccccc2)c2nc(-c3ccccc3)oc(=O)c12` sits at 30% or higher.
label 1

Assess whether reported growth for Nc1nc2c(c3cnccc13)C(c1cccc(Br)c1)Cc1cnccc1-2 (centres undefined) sits at 30% or higher.
label 0

Assess whether reported growth for C/C=C(/C)C(=O)OC1C=C(CO)C(=O)C(OC(=O)C2(C)OC2C)C1C(C)C (centres undefined) sits at 30% or higher.
label 0

Assess whether reported growth for Nc1nc2c(c3cnccc13)C(c1cccc(Cl)c1)Cc1cnccc1-2 (centres undefined) sits at 30% or higher.
label 0
